# maps each entry to its CC50
Test: Concentration of compound causing 50% death of uninfected cells
Assay type: ADME, cell-based
Settings: human, PBMC (uninfected)

{"molecule": "c1cc(CN2CCCNCCNCCCNCC2)ccc1CN1CCCNCCNCCCNCC1 [PLERIXAFOR]", "CC50": "> 10 µM"}
{"molecule": "CCOC(=O)CCCCN1CCCN(Cc2ccc(CN3CCCNCCNCCCNCC3)cc2)CCNCCCNCC1", "CC50": "> 100 µM"}
{"molecule": "CCCCCCCCCCCCCC(=O)N[C@@H](CCCCNC(=O)CCCCN1CCCN(Cc2ccc(CN3CCCNCCNCCCNCC3)cc2)CCNCCCNCC1)C(=O)N[C@@H](CO[C@@H]1O[C@@H](CO)[C@H](O)[C@H](O)[C@@H]1O)C(=O)O", "CC50": "> 28 µM"}
{"molecule": "CCCCCCCCCCCCCC(=O)N[C@@H](CCCCNC(=O)CCCCN1CCCNCCN(Cc2ccc(CN3CCCNCCNCCCNCC3)cc2)CCCNCC1)C(=O)N[C@@H](CO[C@@H]1O[C@@H](CO)[C@H](O)[C@H](O)[C@@H]1O)C(=O)O", "CC50": "> 10 µM"}

----------
Tested on: GHOST CCR5
Test: Inhibitory concentration of compound against HIV-1 Ba1 strain in GHOST CCR5 cell line
Format: functional, cell-based
Details: Homo sapiens
Quick reference: IC50 of the listed items.
quantityMeasured: IC50

{"structure": "CCOC(=O)CCCCN1CCCN(Cc2ccc(CN3CCCNCCNCCCNCC3)cc2)CCNCCCNCC1", "measValue": "> 50 µM"}
{"structure": "c1cc(CN2CCCNCCNCCCNCC2)ccc1CN1CCCNCCNCCCNCC1", "measValue": "> 5 µM"}
{"structure": "CCCCCCCCCCCCCC(=O)N[C@@H](CCCCNC(=O)CCCCN1CCCNCCN(Cc2ccc(CN3CCCNCCNCCCNCC3)cc2)CCCNCC1)C(=O)N[C@@H](CO[C@@H]1O[C@@H](CO)[C@H](O)[C@H](O)[C@@H]1O)C(=O)O", "measValue": "> 10 µM"}
{"structure": "CCCCCCCCCCCCCC(=O)N[C@@H](CCCCNC(=O)CCCCN1CCCN(Cc2ccc(CN3CCCNCCNCCCNCC3)cc2)CCNCCCNCC1)C(=O)N[C@@H](CO[C@@H]1O[C@@H](CO)[C@H](O)[C@H](O)[C@@H]1O)C(=O)O", "measValue": "> 50 µM"}

----------
compounds and their reported CC50
Assay: Concentration of compound causing 50% death of uninfected cells
Assay type: cell-based
Settings: human, CEM-SS cells (uninfected)

{"compound": "c1cc(CN2CCCNCCNCCCNCC2)ccc1CN1CCCNCCNCCCNCC1 [PLERIXAFOR]", "CC50": "> 10 µM"}
{"compound": "CCOC(=O)CCCCN1CCCN(Cc2ccc(CN3CCCNCCNCCCNCC3)cc2)CCNCCCNCC1", "CC50": "> 100 µM"}
{"compound": "CCCCCCCCCCCCCC(=O)N[C@@H](CCCCNC(=O)CCCCN1CCCNCCN(Cc2ccc(CN3CCCNCCNCCCNCC3)cc2)CCCNCC1)C(=O)N[C@@H](CO[C@@H]1O[C@@H](CO)[C@H](O)[C@H](O)[C@@H]1O)C(=O)O", "CC50": "> 100 µM"}
{"compound": "CCCCCCCCCCCCCC(=O)N[C@@H](CCCCNC(=O)CCCCN1CCCN(Cc2ccc(CN3CCCNCCNCCCNCC3)cc2)CCNCCCNCC1)C(=O)N[C@@H](CO[C@@H]1O[C@@H](CO)[C@H](O)[C@H](O)[C@@H]1O)C(=O)O", "CC50": "> 50 µM"}
{"compound": "CCCCCCCCCCCCCC(=O)N[C@@H](CO[C@@H]1O[C@@H](CO)[C@H](O)[C@H](O)[C@@H]1O)C(=O)O", "CC50": "> 100 µM"}
